# TARGET_SYSTEM: T1, rat cholecystokinin receptor type A (CCKAR) (rat, UniProt P30551 1-444)
# T1 construct: whole, on cells; also called cholecystokinin type A receptor
# T1 sequence (looked up): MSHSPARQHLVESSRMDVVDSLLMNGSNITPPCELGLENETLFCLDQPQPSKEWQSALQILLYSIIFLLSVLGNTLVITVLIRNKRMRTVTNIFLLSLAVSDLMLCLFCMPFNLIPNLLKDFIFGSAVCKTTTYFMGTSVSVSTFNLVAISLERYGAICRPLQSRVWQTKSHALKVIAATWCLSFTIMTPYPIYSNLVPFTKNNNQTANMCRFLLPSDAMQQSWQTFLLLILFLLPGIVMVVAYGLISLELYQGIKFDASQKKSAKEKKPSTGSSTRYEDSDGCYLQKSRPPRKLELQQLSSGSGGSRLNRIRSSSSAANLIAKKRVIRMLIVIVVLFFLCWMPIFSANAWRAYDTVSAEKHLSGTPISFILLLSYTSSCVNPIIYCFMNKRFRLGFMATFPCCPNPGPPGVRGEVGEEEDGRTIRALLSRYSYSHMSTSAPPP
# PROCEDURE_DETAILS: inhibition of binding of fluorescent agonist RG-CCK-8 to CHO cells expressing rat CCKAR, quantitative confocal laser scanning microscopy
REPORTED_METRIC: IC50 (µM)
I only need the number, in µM, no unit after it.

binder="FLLSLAVSDLMLCLFCMPFNLP (also called CCKAR-2-1; CCKAR-TN-2-1) [CCKAR-TM-2-1]" observed_result=0.5

Let us examine a further case.
[Q] Requested field: IC50. Item: DDEWQSALQILLYSIIFLLSVLGNTLVITV (Synthetic peptide from the first transmembrane domain of rat CCKAR) [CCKAR-TM-1-6]
[A] 20
